# experimentalSystem: T1, recombinant human FGF23 (R179Q) (human, UniProt Q9GZV9 25-251)
# T1 construct: also called rhFGF23(R179Q); hFGF23(R179Q)
# T1 sequence (looked up): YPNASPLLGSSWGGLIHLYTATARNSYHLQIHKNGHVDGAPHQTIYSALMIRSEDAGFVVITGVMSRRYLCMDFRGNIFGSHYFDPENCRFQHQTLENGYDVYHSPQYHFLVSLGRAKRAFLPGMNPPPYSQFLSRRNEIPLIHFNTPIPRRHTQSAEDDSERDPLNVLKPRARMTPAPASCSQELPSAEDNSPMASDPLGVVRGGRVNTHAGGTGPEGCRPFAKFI
# experimentSummary: SPR, antibody captured on hIgG chip, rhFGF23(R179Q) analyte
parameter: kon (M⁻¹ s⁻¹)
Give the value in M⁻¹ s⁻¹ but do not write M⁻¹ s⁻¹ after it.

# binder, kon (M⁻¹ s⁻¹)
rows = [
    ("UGX166 (antibody, human IgG1, kappa, V domains shown, also called UGX068; HC:S59Y) VH: QVQLVQSGAEVKKPGASVKVSCKASGYTFTNHYMHWVRQAPGQGLEWMGIINPISGSTYNAQKFQGRVTMTRDTSTSTVYMELSSLRSEDTAVYYCARDIVDAFDFWGQGTMVTVSS VL: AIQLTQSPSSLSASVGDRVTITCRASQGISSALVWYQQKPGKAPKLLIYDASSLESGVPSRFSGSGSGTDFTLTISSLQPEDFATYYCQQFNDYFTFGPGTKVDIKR", "8.77e+06"),
    ("UGX131 (antibody, human IgG1, kappa, V domains shown, also called LC:S53F) VH: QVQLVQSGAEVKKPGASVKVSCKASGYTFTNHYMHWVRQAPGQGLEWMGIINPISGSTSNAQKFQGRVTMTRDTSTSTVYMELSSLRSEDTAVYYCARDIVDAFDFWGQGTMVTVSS VL: AIQLTQSPSSLSASVGDRVTITCRASQGISSALVWYQQKPGKAPKLLIYDASFLESGVPSRFSGSGSGTDFTLTISSLQPEDFATYYCQQFNDYFTFGPGTKVDIKR", "6.78e+06"),
    ("UGX192 (antibody, human IgG1, kappa, V domains shown, also called HC:N52F, HC:V101I) VH: QVQLVQSGAEVKKPGASVKVSCKASGYTFTNHYMHWVRQAPGQGLEWMGIIFPISGSTSNAQKFQGRVTMTRDTSTSTVYMELSSLRSEDTAVYYCARDIIDAFDFWGQGTMVTVSS VL: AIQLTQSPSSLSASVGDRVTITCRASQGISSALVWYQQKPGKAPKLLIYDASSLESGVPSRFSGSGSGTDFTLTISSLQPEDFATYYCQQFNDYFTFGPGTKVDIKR", "1.15e+06"),
]

Read the next record carefully.
binder UGX139 (antibody, human IgG1, kappa, V domains shown, also called UGX038; LC:N92Y) VH: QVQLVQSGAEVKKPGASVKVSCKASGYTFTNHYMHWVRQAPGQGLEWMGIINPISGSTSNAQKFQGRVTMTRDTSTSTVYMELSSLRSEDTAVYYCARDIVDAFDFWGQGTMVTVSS VL: AIQLTQSPSSLSASVGDRVTITCRASQGISSALVWYQQKPGKAPKLLIYDASSLESGVPSRFSGSGSGTDFTLTISSLQPEDFATYYCQQFYDYFTFGPGTKVDIKR , kon observed: 6.32e+06
